- targetSystem: wild-type LRRK2 (Homo sapiens)
- Construct: DNA tag for qPCR detection (not a peptide; the protein part that carries it is not described); made in house; host or cells: HEK 293 cells (the same paragraph also describes T7 phage grown in E. coli BL21)
- Sequence (Q5S007 970-2527): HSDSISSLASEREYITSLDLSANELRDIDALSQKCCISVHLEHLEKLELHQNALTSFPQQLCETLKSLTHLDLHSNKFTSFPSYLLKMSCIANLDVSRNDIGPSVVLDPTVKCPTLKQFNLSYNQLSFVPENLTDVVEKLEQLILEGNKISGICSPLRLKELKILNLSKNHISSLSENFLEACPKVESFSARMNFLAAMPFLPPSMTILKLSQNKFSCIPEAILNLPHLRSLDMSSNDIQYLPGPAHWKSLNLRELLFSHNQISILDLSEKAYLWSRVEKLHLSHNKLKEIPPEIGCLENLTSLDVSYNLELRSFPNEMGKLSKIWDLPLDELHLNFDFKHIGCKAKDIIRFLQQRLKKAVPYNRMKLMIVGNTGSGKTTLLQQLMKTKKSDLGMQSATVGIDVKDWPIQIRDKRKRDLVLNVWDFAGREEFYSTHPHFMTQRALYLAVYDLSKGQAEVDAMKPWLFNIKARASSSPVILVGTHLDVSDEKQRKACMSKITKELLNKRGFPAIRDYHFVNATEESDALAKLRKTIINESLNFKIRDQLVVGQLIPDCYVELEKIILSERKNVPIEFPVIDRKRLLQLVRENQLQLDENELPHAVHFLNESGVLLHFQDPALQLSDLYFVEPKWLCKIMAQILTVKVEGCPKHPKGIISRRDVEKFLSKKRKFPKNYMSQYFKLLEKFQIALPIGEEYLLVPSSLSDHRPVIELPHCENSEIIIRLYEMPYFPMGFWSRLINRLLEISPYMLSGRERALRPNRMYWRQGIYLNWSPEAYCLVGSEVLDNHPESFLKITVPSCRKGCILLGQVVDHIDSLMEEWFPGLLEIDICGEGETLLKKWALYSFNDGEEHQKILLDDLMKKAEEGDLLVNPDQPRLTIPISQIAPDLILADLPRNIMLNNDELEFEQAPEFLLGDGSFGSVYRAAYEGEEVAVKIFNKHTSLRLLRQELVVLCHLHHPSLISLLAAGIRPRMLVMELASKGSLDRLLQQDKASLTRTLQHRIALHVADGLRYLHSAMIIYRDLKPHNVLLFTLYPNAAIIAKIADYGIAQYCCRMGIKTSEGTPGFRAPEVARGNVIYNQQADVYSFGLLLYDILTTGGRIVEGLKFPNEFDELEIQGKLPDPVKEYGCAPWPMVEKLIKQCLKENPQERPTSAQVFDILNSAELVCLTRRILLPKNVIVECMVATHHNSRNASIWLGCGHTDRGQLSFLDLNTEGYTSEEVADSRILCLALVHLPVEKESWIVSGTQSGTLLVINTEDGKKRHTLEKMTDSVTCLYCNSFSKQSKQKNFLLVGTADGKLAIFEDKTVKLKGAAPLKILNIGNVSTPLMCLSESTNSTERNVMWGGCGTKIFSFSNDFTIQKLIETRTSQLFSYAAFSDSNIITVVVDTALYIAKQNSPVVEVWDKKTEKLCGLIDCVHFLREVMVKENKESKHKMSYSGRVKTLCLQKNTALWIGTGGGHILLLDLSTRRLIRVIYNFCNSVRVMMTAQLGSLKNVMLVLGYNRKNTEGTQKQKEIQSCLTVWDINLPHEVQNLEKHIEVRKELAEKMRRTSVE
- measurementNotes: Inhibitory activity against LRRK2: competition binding to ligand-affinity beads, DNA-tagged kinase quantitated by qPCR
- conditionDetails: 10 nM compound; % of ctrl; read-out: LRRK2(WT) Remaining kinase activity(%) at 10 nM
# remaining binding at 0.01 µM values compiled below

compound	remaining binding at 0.01 µM
COc1cc(C(=O)NN2C(C)CCCC2C)ccc1Nc1ncc(Cl)c(-c2cnn(C(C)C)c2)n1 (stereo not drawn)	≥ 50%
COc1ccccc1CNC(=O)c1ccc(Nc2ncc(Cl)c(-c3cnn(C(C)C)c3)n2)c(OC)c1	≥ 50%
CCN(C)C1CCN(C(=O)c2ccc(Nc3ncc(Cl)c(-c4cnn(C(C)C)c4)n3)c(OC)c2)CC1	< 50%
COc1cc(C(=O)NC2CC(C)(C)NC(C)(C)C2)ccc1Nc1ncc(Cl)c(-c2cnn(C(C)C)c2)n1	≥ 50%
COc1cc(C(=O)NCc2ccc(N)cc2)ccc1Nc1ncc(Cl)c(-c2cnn(C(C)C)c2)n1	≥ 50%
COc1cc(C(=S)N2CCOCC2)c(F)cc1Nc1ncc(Cl)c(-c2cnn(C(C)C)c2)n1	≥ 50%
COc1cc(C(=O)NC2CCC(N(C)C)CC2)ccc1Nc1ncc(Cl)c(-c2cnn(C(C)C)c2)n1 (stereo not drawn)	< 50%
COc1cc(C(=O)NC2Cc3ccccc3C2)ccc1Nc1ncc(Cl)c(-c2cnn(C(C)C)c2)n1	≥ 50%
COc1cc(C(=O)N2CCN(C(C)C)CC2)ccc1Nc1ncc(Cl)c(-c2cnn(C(C)(C)C)c2)n1	< 50%
COc1cc(C(=O)N2CC3(COC3)C2)ccc1Nc1ncc(Cl)c(-c2cnn(C(C)C)c2)n1	≥ 50%
Cc1cc(C(=O)N2CCN(C)CC2)ccc1Nc1ncc(Cl)c(-c2cnn(C(C)C)c2)n1	≥ 50%
COc1cc(C(=O)NCCS(C)(=O)=O)ccc1Nc1ncc(Cl)c(-c2cnn(C(C)C)c2)n1	≥ 50%
COc1cc(C(=O)NC2CC2)ccc1Nc1ncc(Cl)c(-c2cnn(C(C)C)c2)n1	< 50%
COc1cc(C(=O)NCC(OC)OC)ccc1Nc1ncc(Cl)c(-c2cnn(C(C)C)c2)n1	≥ 50%
COc1cc(C(=O)N2CCN(C)CC2)ccc1Nc1ncc(Cl)c(-c2cnn(C(C)(C)C)c2)n1	< 50%

====

- targetSystem: mutant LRRK2 (G2019S) (Homo sapiens, UniProt Q5S007, G2019S)
- Construct: DNA tag for qPCR detection (not a peptide; the protein part that carries it is not described); made in house; host or cells: HEK 293 cells (the same paragraph also describes T7 phage grown in E. coli BL21)
- Sequence (Q5S007 970-2527 G2019S): as the sequence (Q5S007 970-2527) above, with G1050S counted along it
- measurementNotes: Inhibitory activity against LRRK2: competition binding to ligand-affinity beads, DNA-tagged kinase quantitated by qPCR
- conditionDetails: 100 nM compound; % of ctrl; read-out: Remaining kinase activity(%) at 100 nM LRRK2(G2019Smutant)
readoutKind: remaining binding at 0.1 µM

molecule	observedMeasurement
COc1cc(C(=O)N2CCOCC2)ccc1Nc1ncc(Cl)c(-c2cnn(C)c2)n1 [Compound 1]	< 30%
COc1cc(C(=O)N2CCC(N3CCN(C)CC3)CC2)ccc1Nc1ncc(C(F)(F)F)c(-c2cnn(C)c2)n1 [Compound 31]	< 30%
COc1cc(C(=O)N2CCN(C(C)C)CC2)ccc1Nc1ncc(Cl)c(-c2cnn(C)c2)n1 [Compound 34]	< 30%
COc1cc(C(=O)c2ccncc2)ccc1Nc1ncc(Cl)c(-c2cnn(C(C)C)c2)n1 [Compound 54]	< 30%
COc1cc(C(=O)N2CCOC(C)(C)C2)ccc1Nc1ncc(Cl)c(-c2cnn(C)c2)n1 [Compound 42]	< 50%
COc1cc(C(=O)N2CCOCC2)ccc1Nc1ncc(Cl)c(-c2cnn(S(C)(=O)=O)c2)n1 [Compound 10]	< 10%
COc1cc(C(=O)N2CCC(N3CCN(C)CC3)CC2)ccc1Nc1ncc(Cl)c(-c2cnn(C)c2)n1 [Compound 19]	< 10%
